Sourced from ChEMBL document CHEMBL1139484

molecular target: UniProt:P97612
Sequence (P97612 whole entry): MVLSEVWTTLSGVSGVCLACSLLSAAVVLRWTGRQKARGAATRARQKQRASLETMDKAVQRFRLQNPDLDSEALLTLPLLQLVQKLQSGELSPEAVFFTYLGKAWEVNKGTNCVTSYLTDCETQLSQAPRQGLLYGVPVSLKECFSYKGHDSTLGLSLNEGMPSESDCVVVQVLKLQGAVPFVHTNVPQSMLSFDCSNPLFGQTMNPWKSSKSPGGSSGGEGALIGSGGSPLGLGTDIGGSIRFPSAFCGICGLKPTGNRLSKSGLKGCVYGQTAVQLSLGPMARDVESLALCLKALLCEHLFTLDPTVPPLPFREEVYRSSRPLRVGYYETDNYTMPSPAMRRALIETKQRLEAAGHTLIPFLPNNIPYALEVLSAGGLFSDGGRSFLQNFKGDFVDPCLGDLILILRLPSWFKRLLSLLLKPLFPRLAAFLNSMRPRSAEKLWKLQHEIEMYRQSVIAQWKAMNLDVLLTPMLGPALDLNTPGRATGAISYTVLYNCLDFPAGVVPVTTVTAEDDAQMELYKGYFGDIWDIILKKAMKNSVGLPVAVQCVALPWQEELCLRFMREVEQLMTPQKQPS
observed-property: IC50

Quick one: IC50 for `CCCCCCc1ccc(O)cc1OCCCCCCCCCCC(=O)NC1CC1` ?
> 25 µM

----------
pKi: −log10 of the molar value.
Please consider the recorded pKi for Cannabinoid receptor 2 (Homo sapiens, UniProt P34972) in what follows.

Example compounds with recorded pKi:
> print(dat)
                            chemical.smiles  observed
1  CCCCCCc1ccc(OCCCCCCCCCCC(=O)Nc2ccc(O)cc2)cc1O    < 5.00
2          CCCCCCc1ccc(O)cc1OCCCCCC(=O)NCCO    < 5.00

Quick one: pKi for `O=C(CCCCCCCCCCCCCCCOc1cccc(O)c1)Nc1ccc(O)cc1` ?
5.00

Quick one: pKi for `O=C(CCCCCCCCCCOc1cccc(O)c1)Nc1ccc(O)cc1` ?
< 5.00
